- Test system: SW-620 colon
- Assay text: NCI tumour cell line growth inhibition, 48 h
Please respond with reported TGI for every item in the list.

Could you tell me TGI for each of these compounds? They are listed below.
1. Cc1ccc(CNc2ccc3nc(CCC4CCCCC4)[nH]c3c2)cc1
2. CCn1c(SCC(=O)N/N=C2\SCC(=O)N2c2ccc(C)cc2)nc2ccccc2c1=O
3. Cc1c(Cn2c(C)nc3c(C(=O)O)cc(N4CCOCC4)cc32)cccc1C(F)(F)F
4. COC(NC(=O)Nc1ccc(C)cc1)(C(F)(F)F)C(F)(F)F

Outgoing:
4.64 µM
> 100 µM
> 100 µM
> 100 µM

Count: 8. Required value per item: TGI.
1. Cc1cc(OCc2nnc3n2S(=O)(=O)c2ccccc2N3C)ccc1Cl
2. CCCn1cc2c(=O)[nH]c(SC)nc2n1
3. O=C1c2ccccc2C(=O)N1CCc1ncc(-c2ccccc2)[nH]1
4. CC1(C)Oc2ccc3ccc(=O)oc3c2C(O)C1O (stereo unspecified)
5. C[C@H](Nc1nc(N)c(N=O)c(=O)n1C)C(=O)O
6. OC1NC2Nc3ccccc3NC2NC1O (stereo unspecified)
7. COc1cc(-c2nn(-c3cccc(NC(=O)Nc4ccc(Cl)c(C(F)(F)F)c4)c3)cc2-c2ccncc2)ccc1Cl
8. CC#Cc1c(O)c2c(c(O)c1C#CC)C(=O)c1ccccc1C2=O

Outgoing:
1. > 100 µM
2. > 100 µM
3. > 100 µM
4. > 100 µM
5. > 10 µM
6. > 100 µM
7. 29.9 µM
8. > 100 µM
